# Target Desc: Retinoic acid receptor alpha (Homo sapiens, UniProt P10276)
# Sequence (P10276 whole entry): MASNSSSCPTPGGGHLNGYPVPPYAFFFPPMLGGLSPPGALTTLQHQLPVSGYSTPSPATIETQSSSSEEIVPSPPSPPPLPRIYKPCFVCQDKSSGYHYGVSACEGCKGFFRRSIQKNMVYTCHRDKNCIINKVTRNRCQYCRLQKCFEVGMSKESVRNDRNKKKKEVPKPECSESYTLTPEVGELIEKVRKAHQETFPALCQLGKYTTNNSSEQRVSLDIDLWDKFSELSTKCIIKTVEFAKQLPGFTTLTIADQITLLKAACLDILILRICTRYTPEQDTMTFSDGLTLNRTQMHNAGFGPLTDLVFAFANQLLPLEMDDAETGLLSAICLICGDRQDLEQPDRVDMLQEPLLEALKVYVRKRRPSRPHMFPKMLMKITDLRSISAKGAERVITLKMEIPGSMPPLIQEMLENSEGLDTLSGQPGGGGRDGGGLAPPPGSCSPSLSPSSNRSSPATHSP
# Procedure Details: Effective concentration for Retinoic acid receptor alpha activity in CV-1 cells
pEC50: −log10 of the molar value.
Assay Metric: pEC50

{"columns": ["Compound", "Assay Metric", "Result"],
 "data": [
  ["CC1(C)CCC(C)(C)c2cc(C3CCCc4oc(/C=C5/SC(=O)NC5=O)cc43)ccc21 (stereo not drawn)", "pEC50", "< 5.00"],
  ["Cc1cc2c(cc1C1CCCc3oc(/C=C/C(=O)O)cc31)C(C)(C)CCC2(C)C (stereo not drawn)", "pEC50", "< 5.00"],
  ["CC1(C)CCC(C)(C)c2cc(C3CCCc4oc(/C=C/C(=O)O)cc43)ccc21 (stereo in doubt; 60)", "pEC50", "< 6.10"]
]}
